Test system: c-myc
Test Protocol: Inhibition of c-myc expression (mRNA, real-time PCR) in MV4-11 cells
Format: cell-based
Set-up: key: Active: Compounds with an IC50 value less than 30 μM were deemed to be active.; Not Active: Compounds with an IC50 value less than 30 μM were deemed to be active
Details: Human AML MV4-11 cells, 3 hours
Structures can show the parent of a compound that is named as a salt.
Recorded Endpoint: c-myc activity (IC50 < 30 μM)

> print(dat)
                                    molecule  tested.system              recorded.endpoint  value.measured
 1  COc1cc(OC)c2c(=O)[nH]c(-c3cccc(N4CCN(CCO)CC4)n3)nc2c1          c-myc  c-myc activity (IC50 < 30 μM)          Active
 2  COc1cc(OCc2ccccc2)cc2nc(-c3cccc(N4CCN(C(C)C)CC4)n3)[nH]c(=O)c12 [Example 22, Hydrochloride]          c-myc  c-myc activity (IC50 < 30 μM)          Active
 3  COc1cc(OC)c2c(=O)[nH]c(-c3cccc(N4CCN(C(=O)NC(C)C)CC4)n3)nc2c1 [Example 27, Hydrochloride]          c-myc  c-myc activity (IC50 < 30 μM)          Active
 4  COc1cc(OC)c2c(=O)[nH]c(-c3cccc(N4CCN(C(C)CO)CC4)n3)nc2c1 (stereo not drawn)          c-myc  c-myc activity (IC50 < 30 μM)          Active
 5  COc1cc(OC)c2c(=O)[nH]c(-c3ccc(OCCO)c(N4CCN(C(C)C)CC4)n3)nc2c1 [Example 13, acetate]          c-myc  c-myc activity (IC50 < 30 μM)          Active
 6  COc1cc(OC)c2c(=O)[nH]c(-c3ccc(OC)c(N4CCN(C(C)C)CC4)n3)nc2c1          c-myc  c-myc activity (IC50 < 30 μM)          Active
 7  COc1cc(OC)c2c(=O)[nH]c(-c3cccc(N4CCC(N(C)C)CC4)n3)nc2c1          c-myc  c-myc activity (IC50 < 30 μM)          Active
 8  COc1cc(OC)c2c(=O)[nH]c(-c3cccc(N4CCN(C(C)C(N)=O)CC4)n3)nc2c1 (stereo not drawn)          c-myc  c-myc activity (IC50 < 30 μM)      Not Active
 9  COc1cc(OC)c2c(=O)[nH]c(-c3cccc(N4CCOCC4)n3)nc2c1 [Example 16, Hydrochloride]          c-myc  c-myc activity (IC50 < 30 μM)      Not Active
10  COc1cc(OC)c2c(=O)[nH]c(-c3cc(Cl)cc(N4CCNCC4)c3)nc2c1          c-myc  c-myc activity (IC50 < 30 μM)          Active
11  COc1ccc(OCc2ccccc2)c2nc(-c3cccc(N4CCN(C(C)C)CC4)c3)[nH]c(=O)c12          c-myc  c-myc activity (IC50 < 30 μM)      Not Active
12  COc1cc(F)cc2nc(-c3cccc(N4CCN(C(C)C)CC4)n3)[nH]c(=O)c12 [Example 21, Hydrochloride]          c-myc  c-myc activity (IC50 < 30 μM)          Active
13  COc1cc(N2CCN(C(C)C)CC2)cc2nc(-c3cccc(N4CCN(C(C)C)CC4)n3)[nH]c(=O)c12 [Example 23, Hydrochloride]          c-myc  c-myc activity (IC50 < 30 μM)          Active
14  COc1cc(-c2nc3cc(OC)cc(OC)c3c(=O)[nH]2)cc(N2CCN(C(C)C)CC2)c1          c-myc  c-myc activity (IC50 < 30 μM)          Active
15  COc1cc(OC)c2c(=O)[nH]c(-c3cccc(N4CCN(CC(C)C)CC4)n3)nc2c1          c-myc  c-myc activity (IC50 < 30 μM)          Active
